- Target System: Keap1 (A321-C624) (h) (Homo sapiens, UniProt Q14145)
- Construct: His-Thromb-KEAP1(A321-C624) acquired from Novalix (batch PU-P01) was immobilized covalently by amine coupling; His tag (N); thrombin cleavage site (Thromb) (N)
- Sequence (Q14145 321-624): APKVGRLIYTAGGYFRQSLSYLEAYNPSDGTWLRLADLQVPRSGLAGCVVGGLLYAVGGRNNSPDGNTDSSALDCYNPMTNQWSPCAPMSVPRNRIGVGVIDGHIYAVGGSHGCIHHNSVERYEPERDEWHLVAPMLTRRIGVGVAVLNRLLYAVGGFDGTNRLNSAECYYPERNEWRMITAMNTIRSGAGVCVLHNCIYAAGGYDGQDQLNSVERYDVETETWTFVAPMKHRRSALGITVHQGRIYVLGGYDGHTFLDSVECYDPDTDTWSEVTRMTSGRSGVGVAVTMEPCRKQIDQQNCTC
- Protocol Description: Surface Plasmon Resonance binding assay to Kelch domain of KEAP1
- Condition Notes: Biacore T200, 25° C., immobilized His-Thromb-KEAP1(A321-C624), single cycle kinetics, KD=kd/ka from 1:1 fit; read-out: Keap1 (A321-C624) (h) direct/SPR (KD)
Readout Kind: Kd (nM)
I only need the number, in nM, no unit after it.

Annotate the compound Cc1ccc2cc1CN1Cc3cc(ccc3OS1(=O)=O)OC[C@H](C)CCn1nnc3c(C)c(ccc31)C2CC(=O)O (single isomer, unassigned) [Example 45b] with its measured Kd.
2.35

###

- Target System: Keap1 (A321-C624) (h) (Homo sapiens)
- Construct: His-Thromb-KEAP1(A321-C624) acquired from Novalix (batch PU-P01) was immobilized covalently by amine coupling; His tag (N); thrombin cleavage site (Thromb) (N)
- Protocol Description: Surface Plasmon Resonance binding assay to Kelch domain of KEAP1
- Condition Notes: Biacore T200, 25° C., immobilized His-Thromb-KEAP1(A321-C624), single cycle kinetics, KD=kd/ka from 1:1 fit; read-out: Keap1 (A321-C624) (h) direct/SPR (KD)
Property: pKd; scope: individual molecules
# log scale: pKd equals minus log10 of the concentration in mol/L

Consider the worked cases shown below.
* Cc1c2ccc3c1nnn3CCCCOc1ccc3c(c1)CN(Cc1cc(ccc1Cl)C2CC(=O)O)S(=O)(=O)O3 (single isomer, unassigned) [Example 9b] | 8.00
* Cc1ccc2cc1CN1Cc3cc(c(Cl)cc3OS1(=O)=O)OCCCCn1nnc3c(C)c(ccc31)C2CC(=O)O (single isomer, unassigned) [Example 22b] | 8.68
* COc1ccc2cc1CN1Cc3cc(ccc3OS1(=O)=O)OCc1ccccc1SCCCCn1nnc3c(C)c(ccc31)C2CC(=O)O (single isomer, unassigned) [Example 54b] | 6.41
* COc1cc2cc3c1OS(=O)(=O)N(C3)[C@H](C)c1cc(ccc1C)[C@@H](CC(=O)O)c1ccc3c(nnn3CCCCO2)c1C [Example 23a] | 7.30
* Cc1ccc2cc1CN1Cc3cc(c(Cl)cc3OS1(=O)=O)OCCCCn1nnc3c(C)c(cc(Cl)c31)[C@@H]2CC(=O)O | 8.05

Turning now to a further molecule:
Annotate the molecule Cc1c2ccc3c1nnn3CCCCOc1ccc3c(c1)CN(Cc1cc(cc(C(F)(F)F)c1)C2CC(=O)O)S(=O)(=O)O3 (single isomer, unassigned) [Example 12b] with its measured pKd.
5.53

###

- Target System: Keap1 (A321-C624) (h) (Homo sapiens, UniProt Q14145)
- Construct: His-Thromb-KEAP1(A321-C624) acquired from Novalix (batch PU-P01) was immobilized covalently by amine coupling; His tag (N); thrombin cleavage site (Thromb) (N)
- Protocol Description: Surface Plasmon Resonance binding assay to Kelch domain of KEAP1
- Condition Notes: Biacore T200, 25° C., immobilized His-Thromb-KEAP1(A321-C624), single cycle kinetics, KD=kd/ka from 1:1 fit; read-out: Keap1 (A321-C624) (h) direct/SPR (KD)
So basically: is Kd under 3 nM? Then Y. Not under? Then N.

A selection of reference data follows.
* Cc1ccc2cc1CN1Cc3cc(cc(C)c3OS1(=O)=O)OCCCCn1nnc3c(C)c(ccc31)C2CC(=O)O (single isomer, unassigned) [Example 15b] | N
* Cc1ccc2cc1CN1Cc3cc(ccc3OS1(=O)=O)OCCCn1nnc3c(C)c(ccc31)C2CC(=O)O (racemic) [Example 2] | N
* Cc1ccc2cc1CN1Cc3cc(ccc3OS1(=O)=O)OCCSCCn1nnc3c(C)c(ccc31)C2CC(=O)O (single isomer, unassigned) [Example 63a] | N
* Cc1ccc2cc1CN1Cc3cc(cc(F)c3OS1(=O)=O)OCCCCn1nnc3c(C)c(ccc31)C2CC(=O)O (single isomer, unassigned) [Example 17a] | N
* COCCC1CCOc2ccc3c(c2)CN([C@H](C)c2cc(ccc2C)[C@H](CC(=O)O)c2ccc4c(nnn4C1)c2C)S(=O)(=O)O3 (single isomer, unassigned) [Example 24b] | Y
* Cc1ccc2cc1[C@@H](C)N1Cc3cc(ccc3OS1(=O)=O)OCCCN(C)CCn1nnc3c(C)c(ccc31)[C@@H]2CC(=O)O [Example 21b] | N

Dear reviewer, please state whether Cc1ccc2cc1[C@@H](C)N1Cc3cc(ccc3OS1(=O)=O)OCCCCCCn1nnc3c(C)c(ccc31)[C@H]2CC(=O)O [Example 19b] has Kd strictly beneath 3 nM.
Y

Dear reviewer, please state whether COc1cc2cc3c1OS(=O)(=O)N(C3)[C@H](C)c1cc(ccc1C)[C@H](CC(=O)O)c1ccc3c(nnn3CCCCO2)c1C [Example 23b] has Kd strictly beneath 3 nM.
N

Dear reviewer, please state whether COc1cc2cc(c1)C(CC(=O)O)c1ccc3c(nnn3CCCCOc3ccc4c(c3)CN(C2)S(=O)(=O)O4)c1C (single isomer, unassigned) [Example 8a] has Kd strictly beneath 3 nM.
N

Dear reviewer, please state whether Cc1ccc2cc1[C@@H](C)N1Cc3cc(ccc3OS1(=O)=O)OCCCN(C)CCn1nnc3c(C)c(ccc31)[C@H]2CC(=O)O [Example 21a] has Kd strictly beneath 3 nM.
Y

Dear reviewer, please state whether COc1ccc2cc1CN1Cc3cc(ccc3OS1(=O)=O)OCc1ccccc1SCCCCn1nnc3c(C)c(ccc31)C2CC(=O)O (single isomer, unassigned) [Example 54a] has Kd strictly beneath 3 nM.
N

Dear reviewer, please state whether COc1ccc2cc1[C@@H](C)N1Cc3cc(ccc3OS1(=O)=O)OCCCCCCn1nnc3c(C)c(ccc31)[C@@H]2CC(=O)O [Example 40b] has Kd strictly beneath 3 nM.
N

Dear reviewer, please state whether Cc1ccc2cc1CN1Cc3cc(c(F)cc3OS1(=O)=O)OCCCCn1nnc3c(C)c(ccc31)C2CC(=O)O (single isomer, unassigned) [Example 32a] has Kd strictly beneath 3 nM.
Y

###

Property: log10 Kd; scope: individual molecules
- Target System: Keap1 (A321-C624) (h) (Homo sapiens, UniProt Q14145)
- Construct: His-Thromb-KEAP1(A321-C624) acquired from Novalix (batch PU-P01) was immobilized covalently by amine coupling; His tag (N); thrombin cleavage site (Thromb) (N); purchased Novalix batch PU-P01
- Protocol Description: Surface Plasmon Resonance binding assay to Kelch domain of KEAP1
- Condition Notes: Biacore T200, 25° C., immobilized His-Thromb-KEAP1(A321-C624), single cycle kinetics, KD=kd/ka from 1:1 fit; read-out: Keap1 (A321-C624) (h) direct/SPR (KD)
The common logarithm of Kd in nM is what is listed.

Consider the worked cases shown below.
• COc1cc2cc(c1OC)CN1Cc3cc(ccc3OS1(=O)=O)OCCCCn1nnc3c(C)c(ccc31)C2CC(=O)O (single isomer, unassigned) [Example 35b] = 3.87
• [2H]C([2H])(C(=O)O)[C@H]1c2ccc(C)c(c2)CN2Cc3cc(ccc3OS2(=O)=O)OCCCCn2nnc3c(C)c1ccc32 [Example 55b] = 0.40
• Cc1ccc2cc1[C@@H](C)N1Cc3cc(ccc3OS1(=O)=O)OCCN(C)CCCn1nnc3c(C)c(ccc31)[C@H]2CC(=O)O [Example 34a] = -0.31
• Cc1ccc2cc1[C@@H](C)N1Cc3cc(ccc3OS1(=O)=O)OCCCCCn1nnc3c(C)c(ccc31)[C@H]2CC(=O)O [Example 20a] = -0.26
• COc1ccc2cc1CN1Cc3cc(ccc3OS1(=O)=O)OCCCCn1nnc3c(C)c(ccc31)C2CC(=O)O (single isomer, unassigned) [Example 10a] = 0.55

Recall the reported log10 Kd of Cc1ccc2cc1[C@@H](C)N1Cc3cc(ccc3OS1(=O)=O)OCCN(C)CCCn1nnc3c(C)c(ccc31)[C@@H]2CC(=O)O [Example 34b] when tested on Keap1 (A321-C624) (h) (Homo sapiens, UniProt Q14145).
0.27

###

Property: pKd; scope: individual compounds
- Target System: Keap1 (A321-C624) (h) (Homo sapiens, UniProt Q14145)
- Construct: His-Thromb-KEAP1(A321-C624) acquired from Novalix (batch PU-P01) was immobilized covalently by amine coupling; His tag (N); thrombin cleavage site (Thromb) (N)
- Protocol Description: Surface Plasmon Resonance binding assay to Kelch domain of KEAP1
- Condition Notes: Biacore T200, 25° C., immobilized His-Thromb-KEAP1(A321-C624), single cycle kinetics, KD=kd/ka from 1:1 fit; read-out: Keap1 (A321-C624) (h) direct/SPR (KD)
- Protocol: EXAMPLE 85: SURFACE PLASMON RESONANCE Binding assay to Kelch domain of KEAP1 was performed by Surface Plasmon Resonance (SPR) on a Biacore T200 (GE Healthcare) at 25° C. using CM5 chip. […] Binding of analyte to the ligand was monitored in real time with associations of 180 seconds and a dissociation of 720 seconds. […] The equilibrium constant (KD=kd/ka) was calculated from these fitted parameters. […]
# log scale: pKd equals minus log10 of the concentration in mol/L

Consider the worked cases shown below.
- COc1ccc2cc1CN1Cc3cc(ccc3OS1(=O)=O)OCCOCCn1nnc3c(C)c(ccc31)C2CC(=O)O (single isomer, unassigned) [Example 59a]: 8.29
- Cc1c2ccc3c1nnn3CCCCOc1ccc3c(c1)CN([C@H](C)c1cc(ccc1Cl)[C@@H]2CC(=O)O)S(=O)(=O)O3 [Example 64a]: 9.71
- Cc1ccc2cc1CN1Cc3cc(ccc3OS1(=O)=O)OCCCCCOc1cc(c(C)c3nnn(C)c13)C2CC(=O)O (single isomer, unassigned) [Example 73a]: 8.21
- Cc1c(F)cc2cc1CN1Cc3cc(ccc3OS1(=O)=O)OCCCCn1nnc3c(C)c(ccc31)C2CC(=O)O (single isomer, unassigned) [Example 18a]: 8.44
- Cc1ccc2cc1[C@@H](C)N1Cc3cc(ccc3OS1(=O)=O)OCCCOCCn1nnc3c(C)c(ccc31)[C@H]2CC(=O)O [Example 27b]: 8.45

Turning now to a further compound:
Annotate the compound COc1ccc2cc1CN1Cc3cc(ccc3OS1(=O)=O)OCCCCn1nnc3c(C)c(ccc31)C2CC(=O)O (single isomer, unassigned) [Example 10b] with its measured pKd.
7.82
